The measurements presented in this section are drawn from paper PMC5398096.

Please respond with reported VEGFR-2 assay: fold less potent than semaxanib for every item in the list.
target: UniProt:P35968; assay: VEGFR-2 kinase inhibition, phosphotyrosine ELISA in whole cells; type: cell-based; details: relative to standard semaxanib
Sequence (P35968 20-1356): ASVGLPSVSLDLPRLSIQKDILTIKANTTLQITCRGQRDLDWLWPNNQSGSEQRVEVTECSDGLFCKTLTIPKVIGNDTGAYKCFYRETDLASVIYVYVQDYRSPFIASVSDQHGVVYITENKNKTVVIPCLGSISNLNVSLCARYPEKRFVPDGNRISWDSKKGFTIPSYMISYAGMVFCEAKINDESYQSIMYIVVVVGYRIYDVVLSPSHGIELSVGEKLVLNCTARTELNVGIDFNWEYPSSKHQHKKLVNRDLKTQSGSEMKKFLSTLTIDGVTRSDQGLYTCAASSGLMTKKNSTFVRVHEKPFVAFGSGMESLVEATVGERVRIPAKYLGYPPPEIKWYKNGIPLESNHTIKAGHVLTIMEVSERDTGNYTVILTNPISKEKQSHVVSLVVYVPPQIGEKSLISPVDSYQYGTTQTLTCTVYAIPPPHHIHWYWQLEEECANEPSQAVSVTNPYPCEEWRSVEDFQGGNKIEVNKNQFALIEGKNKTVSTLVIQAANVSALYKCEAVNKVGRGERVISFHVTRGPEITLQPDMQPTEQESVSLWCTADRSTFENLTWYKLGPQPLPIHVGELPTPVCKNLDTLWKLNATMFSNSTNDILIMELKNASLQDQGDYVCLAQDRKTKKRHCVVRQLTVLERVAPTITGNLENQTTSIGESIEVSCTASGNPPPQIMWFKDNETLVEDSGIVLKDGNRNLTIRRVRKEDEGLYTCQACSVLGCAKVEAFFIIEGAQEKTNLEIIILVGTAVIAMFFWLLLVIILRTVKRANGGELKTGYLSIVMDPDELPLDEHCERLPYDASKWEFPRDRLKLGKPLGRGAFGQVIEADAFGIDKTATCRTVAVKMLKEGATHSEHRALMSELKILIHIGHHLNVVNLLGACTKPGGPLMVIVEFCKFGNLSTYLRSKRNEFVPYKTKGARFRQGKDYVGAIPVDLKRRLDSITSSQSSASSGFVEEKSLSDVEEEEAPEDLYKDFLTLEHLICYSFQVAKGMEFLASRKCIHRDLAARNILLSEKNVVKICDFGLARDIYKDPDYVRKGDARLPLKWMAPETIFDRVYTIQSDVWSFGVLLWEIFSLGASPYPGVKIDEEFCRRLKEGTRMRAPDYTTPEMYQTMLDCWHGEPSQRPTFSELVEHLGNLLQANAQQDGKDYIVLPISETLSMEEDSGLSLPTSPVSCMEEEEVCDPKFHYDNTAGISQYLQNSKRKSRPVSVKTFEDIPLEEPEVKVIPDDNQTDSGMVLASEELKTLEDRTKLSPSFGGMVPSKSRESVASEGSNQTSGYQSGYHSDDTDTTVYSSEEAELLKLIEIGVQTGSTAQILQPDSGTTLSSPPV
Form entry: value (fold) — number only.

Exercise: Item Nc1nc(N)c2c(n1)[nH]c1cccc(Sc3cccc4ccccc34)c12 with UniProt:P35968 - VEGFR-2 assay: fold less potent than semaxanib?
Key: 16

Exercise: Item COc1ccc(Sc2cccc3[nH]c4nc(N)nc(N)c4c23)cc1 with UniProt:P35968 - VEGFR-2 assay: fold less potent than semaxanib?
Key: 15

Exercise: Item Nc1nc(N)c2c(n1)[nH]c1cccc(Sc3ccc4ccccc4c3)c12 with UniProt:P35968 - VEGFR-2 assay: fold less potent than semaxanib?
Key: 13
